# targetOfAssay: recombinant MARK3 enzyme (Homo sapiens)
# Sequence (P27448 whole entry, species assumed): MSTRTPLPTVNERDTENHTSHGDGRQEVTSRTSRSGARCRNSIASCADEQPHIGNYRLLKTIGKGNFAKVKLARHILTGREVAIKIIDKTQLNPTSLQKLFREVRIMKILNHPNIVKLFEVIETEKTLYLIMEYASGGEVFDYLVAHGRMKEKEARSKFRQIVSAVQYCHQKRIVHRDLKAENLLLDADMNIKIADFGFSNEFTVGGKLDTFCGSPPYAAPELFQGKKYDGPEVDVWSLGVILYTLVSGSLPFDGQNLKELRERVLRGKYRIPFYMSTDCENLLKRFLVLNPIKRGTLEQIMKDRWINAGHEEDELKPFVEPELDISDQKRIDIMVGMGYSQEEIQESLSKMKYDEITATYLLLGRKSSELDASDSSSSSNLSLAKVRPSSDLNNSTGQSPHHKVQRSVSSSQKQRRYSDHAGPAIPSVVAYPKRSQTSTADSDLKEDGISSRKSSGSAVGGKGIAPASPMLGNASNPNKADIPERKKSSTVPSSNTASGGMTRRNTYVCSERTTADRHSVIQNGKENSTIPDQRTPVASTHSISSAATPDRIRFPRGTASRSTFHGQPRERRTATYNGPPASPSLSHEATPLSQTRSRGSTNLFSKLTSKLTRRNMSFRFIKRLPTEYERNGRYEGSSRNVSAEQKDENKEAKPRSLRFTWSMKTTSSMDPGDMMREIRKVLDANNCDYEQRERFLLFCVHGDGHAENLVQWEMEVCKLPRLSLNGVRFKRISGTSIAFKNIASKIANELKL
# assayRemarks: MARK 3 Assay (HTRF, Cdc25C biotinylated peptide substrate)
# conditionLabel: MARK3, 10 μM ATP, 1 μM peptide substrate, 2 hours at 25° C.
testReadout: IC50 (nM)
The response must be a number in nM with no trailing unit.

Readout IC50 for CCc1sc(C(=O)N[C@@H]2[C@@H](N)CCCC2(F)F)cc1-c1cnn2cc(F)ccc12 , test system recombinant MARK3 enzyme (Homo sapiens), was 29

Readout IC50 for Cc1sc(C(=O)NC(CN)c2ccccc2)nc1-c1cnn2cc(-c3cnn(C)c3)ccc12 (stereo not drawn) , test system recombinant MARK3 enzyme (Homo sapiens), was 13

Readout IC50 for C=C(C)c1ccc2c(-c3csc(C(=O)N[C@@H]4[C@@H](N)CCCC4(F)F)n3)cnn2c1 , test system recombinant MARK3 enzyme (Homo sapiens), was 0.5

Readout IC50 for N[C@@H]1CCCC(F)(F)[C@@H]1NC(=O)c1nc(-c2cnn3cc(-c4ccc(F)cc4)ccc23)c(Cl)s1 , test system recombinant MARK3 enzyme (Homo sapiens), was 21

Readout IC50 for N[C@H]1CCCC(F)(F)[C@@H]1NC(=O)c1nc(-c2cnn3ccccc23)c(Cl)s1 , test system recombinant MARK3 enzyme (Homo sapiens), was 4

Readout IC50 for N[C@@H]1CCCC(F)(F)[C@@H]1NC(=O)c1cc(-c2cnn3ccccc23)c(Cl)s1 , test system recombinant MARK3 enzyme (Homo sapiens), was 19

Source of measurements: patent US8518911B2
